Hello, the source for this data is ChEMBL document CHEMBL1155510, in case you need it.

Assay: Inhibition of HIV integrase strand transfer activity
Design: species or system Human immunodeficiency virus
pIC50: −log10 of the molar value.

{"Chemical String": "CNC(=O)c1nc(Cc2ccc(F)cc2)n(C)c(=O)c1O", "Result Operator": "=", "pIC50": 3.62}
{"Chemical String": "COCCNC(=O)c1nc(Cc2ccc(F)cc2)[nH]c(=O)c1O", "Result Operator": "=", "pIC50": 3.69}
{"Chemical String": "O=C(O)c1nc(Cc2ccc(F)cc2)[nH]c(=O)c1O", "Result Operator": "=", "pIC50": 3.61}
{"Chemical String": "CNC(=O)c1nc(Cc2ccc(F)cc2)[nH]c(=O)c1O", "Result Operator": "=", "pIC50": 3.77}
{"Chemical String": "CNC(=O)c1nc(C)n(Cc2ccc(F)cc2)c(=O)c1O", "Result Operator": "=", "pIC50": 3.95}
{"Chemical String": "CN(C)CCCNC(=O)c1nc(Cc2ccc(F)cc2)[nH]c(=O)c1O", "Result Operator": "<", "pIC50": 3.48}
